target: a-thrombin (Homo sapiens, UniProt P00734); experiment: Amidolytic thrombin assay (inhibitor constant Ki, Ki*); assay type: biochemical; parameters: Purified human a-thrombin; purchased Enzyme Research Laboratories, Inc; settings: human a-thrombin 0.25 nM, Pefachrome t-PA substrate, HBSA pH 7.5
pKi: −log10 of the molar value.
Measurement type: pKi

{"Substance": "(D-Phe)-Pro-Arg-Pro-(Gly)4 -Asn-Gly-Asp-Phe-Glu-Glu-Ile-Pro-Glu-Glu-Tyr-Leu-OH [Hirulog-1]", "Measured result": 9.36}

---

tested on: washed human platelets; assay: Thrombin-induced aggregation in washed human platelets; type: cell-based; conditions: a-thrombin 2 nM, extent of aggregation over 1 minute, mean ± SD of three
Measurement type: IC50 (nM)

{"Substance": "(D-Phe)-Pro-Arg-Pro-(Gly)4 -Asn-Gly-Asp-Phe-Glu-Glu-Ile-Pro-Glu-Glu-Tyr-Leu-OH [Hirulog-1]", "Measured result": 16}
